Tested on: Mus musculus
Assay: Antidepressant activity in mouse assessed as total time of immobilization at 50 mg/kg, ip measured for 6 mins by forced swimming test (reference value: 81 secs)
Type: functional
Property measured: Time (s)
One number for each entry, in s.

| Compound | Time / s |
| --- | --- |
| COc1ccc(CSc2nnc3c4c(c(C#N)c(Nc5ccc(C)cc5)n23)CC(C)(C)OC4)cc1 | 71 |
| CC1(C)Cc2c(C#N)c(Nc3ccccc3)n3c(SCCCc4ccccc4)nnc3c2CO1 | 115 |
| CC1(C)Cc2c(C#N)c(Nc3ccccc3)n3c(SCC(=O)N(c4ccccc4)c4ccccc4)nnc3c2CO1 | 43 |
| CC1(C)Cc2c(C#N)c(Nc3ccccc3)n3c(SCC(=O)c4cccc([N+](=O)[O-])c4)nnc3c2CO1 | 84 |

Now consider a different compound.
I am curious: what Time value has been reported for CCOC(=O)C(Sc1nnc2c3c(c(C#N)c(Nc4ccccc4)n12)CC(C)(C)OC3)c1ccccc1 (stereo not given) ? 76
